B1: CDC14A (parent)
chain: LNLAMVYRYCCKLNKKLKSYSLSR

# Variants of: B1
# MEASUREMENT_NOTES: protein stability index of a GFP-peptide fusion (GPS, HEK-293T) (PSI 1-6); higher = more stable;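 note: lentivirally expressed fusions sorted by FACS into six bins by GFP to DsRed ratio, PSI derived from sequencing read proportions per bin multiplied by bin number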
# REPORTED_CONDITIONS: c terminus: a fixed tail appended
Cut-off 3 on protein stability index, inclusive. At or above means TRUE; below means FALSE.

Previously resolved entries follow.
- MUTATION_STRING: "L3Q"
  CLASS_LABEL: "FALSE"
- MUTATION_STRING: "K12P"
  CLASS_LABEL: "FALSE"
- MUTATION_STRING: "C11P"
  CLASS_LABEL: "FALSE"
- MUTATION_STRING: "S19H"
  CLASS_LABEL: "FALSE"
- MUTATION_STRING: "N2I"
  CLASS_LABEL: "FALSE"

Determine whether measured protein stability index meets or exceeds 3 for L1M
TRUE

Determine whether measured protein stability index meets or exceeds 3 for A4I
FALSE

Determine whether measured protein stability index meets or exceeds 3 for S23D
FALSE

Determine whether measured protein stability index meets or exceeds 3 for C10M
FALSE

Determine whether measured protein stability index meets or exceeds 3 for Y20V
FALSE
